# target: furin, P09958;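 further: purified furin at 1:10 enzyme:substrate in 50 mM HEPES pH 7.5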
# Sequence (P09958 whole entry): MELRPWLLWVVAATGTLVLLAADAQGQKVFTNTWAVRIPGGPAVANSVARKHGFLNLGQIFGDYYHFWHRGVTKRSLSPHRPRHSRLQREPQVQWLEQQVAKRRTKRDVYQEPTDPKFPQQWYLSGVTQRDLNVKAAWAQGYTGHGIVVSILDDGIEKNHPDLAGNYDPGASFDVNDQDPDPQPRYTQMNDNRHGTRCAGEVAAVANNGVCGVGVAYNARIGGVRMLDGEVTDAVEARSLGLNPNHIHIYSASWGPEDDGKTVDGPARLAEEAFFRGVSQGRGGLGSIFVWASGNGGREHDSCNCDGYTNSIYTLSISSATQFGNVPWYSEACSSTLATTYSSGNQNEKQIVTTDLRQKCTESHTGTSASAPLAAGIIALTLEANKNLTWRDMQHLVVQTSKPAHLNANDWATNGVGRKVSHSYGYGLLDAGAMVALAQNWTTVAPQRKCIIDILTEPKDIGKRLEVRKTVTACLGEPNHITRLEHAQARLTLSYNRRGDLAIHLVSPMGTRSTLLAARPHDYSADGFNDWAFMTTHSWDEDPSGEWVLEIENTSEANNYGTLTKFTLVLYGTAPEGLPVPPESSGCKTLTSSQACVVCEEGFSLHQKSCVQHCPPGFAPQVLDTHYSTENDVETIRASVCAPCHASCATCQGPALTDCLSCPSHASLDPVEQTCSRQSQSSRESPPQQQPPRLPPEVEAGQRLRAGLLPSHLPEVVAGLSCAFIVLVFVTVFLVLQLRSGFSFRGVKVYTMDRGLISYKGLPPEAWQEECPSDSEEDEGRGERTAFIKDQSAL
# assayExplanation: furin cleavage Z-score vs untreated control; higher = more cleavage, active = 3.5 or more, inactive = 1 or less, 8 variable residues between constant flanks
# testContext: 30 min
Some of the results follow. The hit rate among all sequences tested is not known here.
Would you please tag the item class 1 when its furin cleavage Z-score is -0.5 or above, and class 0 when it is below?

# seq, class
measured = [
    ("CAVVCCSMSGAGNASASA [HC2096]", "class 1"),
    ("CAALWRVSAEAGNASASA [HC1201]", "class 0"),
    ("CAGLAGAAIGAGNASASA [HC1077]", "class 0"),
    ("CAQRVEFLVQAGNASASA [HC1470]", "class 1"),
    ("CAAVRTKLKLAGNASASA [HC1635]", "class 1"),
    ("CAEVNCHRPSAGNASASA [HC2361]", "class 1"),
    ("CAEVAASCGGAGNASASA [HC567]", "class 1"),
]

The measured values listed here are drawn from the supplement of paper PMC3545927.
